B1: glmS ribozyme (parent)
chain: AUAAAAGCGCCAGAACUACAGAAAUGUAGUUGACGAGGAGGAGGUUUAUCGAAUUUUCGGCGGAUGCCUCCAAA

# Variants of: B1
# procedure_text: self-cleavage kobs at 2500 uM GlcN6P; higher = faster cleavage; RNA array
# measurement_context: with glucosamine-6-phosphate
This sample holds only a part of the variants without activity.
Documented self-cleavage kobs at 2500 uM GlcN6P across a set of variants

Please review the entries below; each comes with its answer.
| mutant_code | self-cleavage kobs at 2500 uM GlcN6P |
| --- | --- |
| A52G U54G C68G | 7.13e-05 s⁻¹ |
| G29U A33U G43C G60C G62U C71G | < 1e-05 s⁻¹ |
| U47C U49G C50U | < 1e-05 s⁻¹ |
| A14U G40U G60A C70G C71U | < 1e-05 s⁻¹ |
| C16A U46C | 5.11e-05 s⁻¹ |
| U30C A36G U57C | < 1e-05 s⁻¹ |
| C8G G9C G41A G60C C61A C68G | < 1e-05 s⁻¹ |
| A14G A48U | 0.000889 s⁻¹ |

self-cleavage kobs at 2500 uM GlcN6P for A12G C34A A36G ?
< 1e-05 s⁻¹

self-cleavage kobs at 2500 uM GlcN6P for C11G A52C ?
< 1e-05 s⁻¹
